Data origin, for the record: paper PMC12239085

Test system: MRC-5 cells
Test: In vitro micronucleus (MN) assay
Format: cell-based, human
measurementLabel: Relative ratio of MN in respect to untreated cells (fold)

INSERT INTO results (compound, measurementunit, numericresult) VALUES
  ('Fc1ccccc1-c1nnc([S][Ag]([PH](c2ccccc2)(c2ccccc2)c2ccccc2)([PH](c2ccccc2)(c2ccccc2)c2ccccc2)[PH](c2ccccc2)(c2ccccc2)c2ccccc2)o1', 'fold', 1.24),
  ('Fc1ccc(-c2nnc([S][Ag]([PH](c3ccccc3)(c3ccccc3)c3ccccc3)([PH](c3ccccc3)(c3ccccc3)c3ccccc3)[PH](c3ccccc3)(c3ccccc3)c3ccccc3)o2)cc1', 'fold', 1.31),
  ('c1ccc(-c2nnc([S][Ag]([PH](c3ccccc3)(c3ccccc3)c3ccccc3)([PH](c3ccccc3)(c3ccccc3)c3ccccc3)[PH](c3ccccc3)(c3ccccc3)c3ccccc3)o2)cc1', 'fold', 1.38),
  ('Clc1ccccc1-c1nnc([S][Ag]([PH](c2ccccc2)(c2ccccc2)c2ccccc2)([PH](c2ccccc2)(c2ccccc2)c2ccccc2)[PH](c2ccccc2)(c2ccccc2)c2ccccc2)o1', 'fold', 1.69);

====

Test system: MCF-7 cells
Test: Cell cycle arrest, flow cytometry
Format: cell-based, human
Conditions: MCF-7, IC50 values, 48 h; untreated 5.1%
measurementLabel: cell population in sub-G1 phase (%)

INSERT INTO assay_data (compound, numericresult) VALUES
  ('Fc1ccc(-c2nnc([S][Ag]([PH](c3ccccc3)(c3ccccc3)c3ccccc3)([PH](c3ccccc3)(c3ccccc3)c3ccccc3)[PH](c3ccccc3)(c3ccccc3)c3ccccc3)o2)cc1 [compound 3]', 12.8),
  ('c1ccc(-c2nnc([S][Ag]([PH](c3ccccc3)(c3ccccc3)c3ccccc3)([PH](c3ccccc3)(c3ccccc3)c3ccccc3)[PH](c3ccccc3)(c3ccccc3)c3ccccc3)o2)cc1 [compound 1]', 14.5),
  ('Clc1cccc(-c2nnc([S][Ag]([PH](c3ccccc3)(c3ccccc3)c3ccccc3)([PH](c3ccccc3)(c3ccccc3)c3ccccc3)[PH](c3ccccc3)(c3ccccc3)c3ccccc3)o2)c1 [compound 5]', 41.1),
  ('Fc1ccccc1-c1nnc([S][Ag]([PH](c2ccccc2)(c2ccccc2)c2ccccc2)([PH](c2ccccc2)(c2ccccc2)c2ccccc2)[PH](c2ccccc2)(c2ccccc2)c2ccccc2)o1 [compound 2]', 8.9);
